system: HOP-92 NSCLC; assay: NCI tumour cell line growth inhibition, 48 h
Below, each entry is listed with its recorded TGI.
Answer in µM, number only, no unit symbol.

// below: answered compounds
[[record]]
substance_smiles = "CNCCOC(=O)/C=C1\\CC[C@H]2[C@@H]([C@@H](O)C(=O)[C@@H]3[C@]2(C)CC[C@H](O)[C@]3(C)C(=O)OC)[C@H]1C"
experimental_endpoint = "TGI"
unit_descriptor = "µM"
assay_result = 3.52

[[record]]
substance_smiles = "C/C(N=NC(=S)N1CC2CCC(CC2)C1)=C1\\C=CC=CN1O"
experimental_endpoint = "TGI"
unit_descriptor = "µM"
assay_result = 54.5

[[record]]
substance_smiles = "CN(C)C1CCN(C(=O)c2ccc(NC(=O)Nc3ccc(-c4nc(N5CCOCC5)c5cccn5n4)cc3)cc2)CC1"
experimental_endpoint = "TGI"
unit_descriptor = "µM"
assay_result = 0.102


Shifting focus to the compound that follows.
**Q:** Given COC1=CC(=O)c2c(c(-c3nc(C)cs3)cn2C)C1=O , state its recorded TGI.
**A:** 43.2

Recorded values, source PubChem BioAssay (NCI).
